Can you tell me Average of ulcer number for the items I'm about to list?
- Tested on: gastric mucosa
- Assay Text: Ulcerogenic liability (ulcer index)
- Type: in vivo, albino mice
- Experimental Setup: orally, three successive days, 10 mg/kg indomethacin mol equivalent
Number, no unit, nothing else.

Ask | Supply Average of ulcer number value. Item: COc1cc(/C=C/C(=O)CC(=O)/C=C/c2ccc(OC(=O)C(C)NC(=O)OCc3ccccc3)c(OC)c2)ccc1OC(=O)C(C)NC(=O)OCc1ccccc1 (racemic)
Reply | 0.67

Ask | Name the recorded Average of ulcer number of the item "COc1cc(/C=C/C(=O)CC(=O)/C=C/c2ccc(OC(=O)[C@H](CCSC)NC(=O)OCc3ccccc3)c(OC)c2)ccc1OC(=O)[C@H](CCSC)NC(=O)OCc1ccccc1" in your answer.
Reply | 0.33

Ask | Using the record for "COc1cc(/C=C/C(=O)CC(=O)/C=C/c2ccc(OC(=O)[C@H](CCSC)NC(=O)OCC3c4ccccc4-c4ccccc43)c(OC)c2)ccc1OC(=O)[C@H](CCSC)NC(=O)OCC1c2ccccc2-c2ccccc21" , state its measured Average of ulcer number.
Reply | 0

Where do the numbers come from? From patent US10660967B2.
